# test-details: chemical genetic growth profiling, strain panel (AID 1159580);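 also: tested at 20 µM; growth read once vehicle control cultures reached saturation at 30 °C; 1 = growth at the plate median or of vehicle wells; lower values mean less growth of the strain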
# protocol-conditions: S. cerevisiae deletion strains, growth OD, locus YPR167C, strain met16
In all, about 5,500 compounds went through this assay and about 2,000 (36%) were called active. About 18% were inconclusive and are not listed. Rule as the data show it: active = normalized growth mostly below about 0.91 (no sharp cut-off); inconclusive = no clear call, values can overlap the other calls; inactive = mostly above about 0.92. The list shows a part of the results.
In this exercise, the only acceptable responses are active, inactive

The following molecules have reported results that may help.
Nc1ncnc2c1ncn2C1O[C@H](COP(=O)(O)O)[C@@H](O)[C@H]1O (stereo partly specified)	active
Nc1nc2c(ncn2C2C[C@H](O)[C@@H](CO)O2)c(=O)[nH]1 (stereo partly specified)	active
C1CCN2CC3CC(CN4CCCCC34)C2C1 (stereo unspecified)	inactive
O=C(O)c1ccccc1Nc1cccc(C(F)(F)F)c1	inactive
C=C[C@](C)(O)CCC=C(C)C	inactive

Given CC(C)=CCC[C@](C)(O)C1CC=C(C)CC1 (stereo partly specified) , state the outcome it received in this test.
inactive

* * *

# test-details: chemical genetic growth profiling, strain panel (AID 1159580)
# protocol-conditions: S. cerevisiae deletion strains, growth OD, locus YPR135W, strain CTF4, hits give low values
Hit rate of the full screen: of about 5,500 compounds, about 2,000 (36%) were called active. Another 18% or so got no clear call; they are omitted. Some of the results follow.
assay-metric: normalized growth
A bare number is all that is needed in reply.

Would you please look over these solved cases?
O=C(NC(=S)NCc1ccncc1)c1ccccc1	0.929
NC(=NS(=O)(=O)c1cc(C(F)(F)F)cc(C(F)(F)F)c1)c1cccs1	0.877
CCn1nc(C)c(Br)c1-c1nc(-c2ccc(C(F)(F)F)cc2)no1	1.02

Sample O=C(COC(=O)c1ccccc1Nc1ccccc1)c1ccc(Cl)cc1 ; normalized growth observed: 1.01

Lab note: measured normalized growth of COc1cc(C2N=C(c3ccc(Cl)cc3)SC(c3ccc(Cl)cc3)=N2)cc(OC)c1OC was 1.09

# normalized growth of CC1CCN(C(=O)CC#N)CC1 = 1.02

* * *

Each record here notes measured normalized growth.
# test-details: chemical genetic growth profiling, strain panel (AID 1159580)
# protocol-conditions: S. cerevisiae deletion strains, growth OD, locus YDL040C, strain nat1, hits give low values
The campaign covered roughly 5,500 compounds. About 2,000 (36%) were called active. Not shown: some 18% with an inconclusive outcome. This is one part of the list.
Keep the answer to the number alone.

Guide cases for normalized growth, answers given:
CCCC(C)C1(CC)C(=O)NC(=O)NC1=O (configuration not stated)	1
O=C(OC1Cc2c(O)cc(O)cc2OC1c1cc(O)c(O)c(O)c1-c1c(C2Oc3cc(O)cc(O)c3CC2OC(=O)c2cc(O)c(O)c(O)c2)cc(O)c(O)c1O)c1cc(O)c(O)c(O)c1 (configuration not stated)	1.03

Sample O=C(O[C@@H]1Cc2c(O)cc(O)cc2O[C@@H]1c1cc(O)c(O)c(O)c1-c1c([C@H]2Oc3cc(O)cc(O)c3C[C@H]2O)cc(O)c(O)c1O)c1cc(O)c(O)c(O)c1 ; normalized growth observed: 1

Sure, the documented normalized growth for Cc1ccc(/C(=C\CN2CCCC2)c2ccccn2)cc1 is 1.01

normalized growth measured on C=C(NC(=O)C(=C)NC(=O)c1csc(C2=NC3c4csc(n4)C4NC(=O)c5csc(n5)C(C(C)(O)C(C)O)NC(=O)C5CSC(=N5)C(=CC)NC(=O)C(C(C)O)NC(=O)c5csc(n5)C3(CC2)NC(=O)C(C)NC(=O)C(=C)NC(=O)C(C)NC(=O)C(C(C)CC)NC2C=Cc3c(C(C)O)cc(nc3C2O)C(=O)OC4C)n1)C(N)=O (configuration not stated) = 0.993

Value of measured normalized growth for the entry C=CCC1(C(C)CCC)C(=O)N=C(S)NC1=O (configuration not stated) : 0.973

Reported normalized growth ( O[N+]1=CC=CCC1=S.On1ccccc1=S.[Zn] ) = 0.061

* * *

# test-details: chemical genetic growth profiling, strain panel (AID 1159580);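 also: tested at 20 µM; growth read once vehicle control cultures reached saturation at 30 °C; 1 = growth at the plate median or of vehicle wells; lower values mean less growth of the strain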
# protocol-conditions: S. cerevisiae deletion strains, growth OD, locus YPL153C, strain RAD53, hits give low values
Screen size: about 5,500 compounds; about 2,000 (36%) were called active. Another 18% or so got no clear call; they are omitted. Some of the results follow.
assay-metric: normalized growth
Form: value (number only, do not type unit).

Please review the following examples before continuing.
CC(C)c1ccc(NC(=S)NC(=O)c2ccccc2)cc1	0.921
CC(C)c1ccc(NCC(O)CSc2ccccc2)cc1 (configuration not stated)	0.741
CC(=O)Nc1ccc([N+](=O)[O-])cc1[N+](=O)[O-]	0.271
CSc1ccc(/C=C(\C)[N+](=O)[O-])cc1	0.112
O=[N+]([O-])/C=C/c1ccc(F)cc1	0.101

# compound COC(=O)C1=C(C)NC(C)=C(C(=O)OC)C1c1ccc(Cl)cc1Cl ; its normalized growth = 0.866

Field normalized growth (entry C/C(=C\c1ccc2c(c1)OCO2)[N+](=O)[O-] ) reads 0.101

For record CCCc1c(C(=O)NNc2cccc(Cl)c2)cnn1-c1ccccc1 the listed normalized growth is 0.94

Form: compound = CC(C)c1ccc(N2C=Nc3ccc(C(C)C)cc3C2)cc1 ; normalized growth = 0.983

For this compound ( O=C(NCCSCc1cccc(C(F)(F)F)c1)Nc1cccc(C(F)(F)F)c1 ), measured normalized growth is 1.02

normalized growth recorded for this compound, FC(F)(F)c1cccc(NC(=S)Nc2csc(C(F)(F)F)c2-c2ccccc2)c1 , is 0.976

Reported normalized growth for CCCc1c(C(=O)NC2Cc3ccccc3C2)cnn1-c1ccccc1 was 0.956

* * *

This listing pairs compounds with measured normalized growth.
# test-details: chemical genetic growth profiling, strain panel (AID 1159580);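 also: tested at 20 µM; growth read once vehicle control cultures reached saturation at 30 °C; 1 = growth at the plate median or of vehicle wells; lower values mean less growth of the strain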
# protocol-conditions: S. cerevisiae deletion strains, growth OD, locus YHR082C, strain KSP1, hits give low values
In all, about 5,500 compounds went through this assay and about 2,000 (36%) were called active. Not shown: some 18% with an inconclusive outcome. This is one part of the list.
API note: the answer field is a bare number with no unit suffix.

Record excerpt, results attached:
CCOC(=O)C1=C(N)OC2=C(C(=O)CC(C)(C)C2)C1c1ccc(Cl)cc1Cl (centres undefined)	1.01
FC(F)(F)c1cccc(NNC(=S)Nc2ccccc2)c1	0.876
CCCc1c(C(=O)NNc2cccc(Cl)c2)cnn1-c1ccccc1	1
N#CC(C#N)=C/C=C(/Sc1nc2ccccc2s1)c1ccc(Br)cc1	0.163
CCOc1ccc(/C=C(\C)[N+](=O)[O-])cc1OC	0.429

For CSc1ccc(/C=C(\C)[N+](=O)[O-])cc1 the compound record lists normalized growth as 0.141

// recorded normalized growth for CSc1cc(-c2ccncc2)nc(-c2cccs2)c1 : 1.02

Looking up COc1ccc(C(=O)CSC2=NCCc3ccccc32)cc1 , I found its normalized growth recorded as 1.04

Lookup result for O=C(Nc1ccc(N2CCOCC2)cc1)c1ccc(-n2cccn2)cc1 ; measured normalized growth: 1.07

Item: O=C(Nc1ccc(C(F)(F)F)cc1)N1CCN(c2ccnc3cc(Cl)ccc23)CC1 | normalized growth: 1.1

The recorded normalized growth for CCCc1c(C(=O)NC2Cc3ccccc3C2)cnn1-c1ccccc1 is 1.04

Record O=[N+]([O-])c1cc(Br)cnc1Sc1nnc(SCC2CC2)s1 . Reported normalized growth: 0.707

Reported normalized growth of O=C(c1ccc2ccccc2c1)N1CCN(c2ccnc3cc(Cl)ccc23)CC1 : 1.01

Notebook: CC(=O)Nc1ccc(/C=C/[N+](=O)[O-])cc1 , normalized growth read as 0.804

response.value for Cc1cc(Br)ccc1-n1c(Sc2c([N+](=O)[O-])cc(C(F)(F)F)cc2[N+](=O)[O-])nc2ccccc2c1=O (field: normalized growth) = 0.997

Per the records, this compound ( O=C(NC(=O)c1c(F)cccc1Cl)OCc1ccc(Cl)cc1Cl ) has normalized growth equal to 0.95

normalized growth for CSc1ccc(/C=C/[N+](=O)[O-])cc1 is 0.118

The compound identified as C=CCOc1ccc(/C=C/[N+](=O)[O-])cc1 registered its normalized growth at 0.124

Noted for CCCc1c(C(=O)Sc2ccccn2)cnn1-c1ccc(Cl)cc1 : its normalized growth reads 0.907

* * *

# test-details: chemical genetic growth profiling, strain panel (AID 1159580);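 also: tested at 20 µM; growth read once vehicle control cultures reached saturation at 30 °C; 1 = growth at the plate median or of vehicle wells; lower values mean less growth of the strain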
# protocol-conditions: S. cerevisiae deletion strains, growth OD, locus YLR262C, strain YPT6
Screen size: about 5,500 compounds; about 2,000 (36%) were called active. About 18% were inconclusive and are not listed. No stated cut-off is given here; in the data, active means normalized growth mostly below about 0.91 (no sharp cut-off); inconclusive means no clear call, values can overlap the other calls; inactive means mostly above about 0.92. The list shows a part of the results.
Bench note: report the call from active, inactive

Completed entries (count: 3):
O=C(OC1Cc2c(O)cc(O)cc2OC1c1cc(O)c(O)c(O)c1-c1c(C2Oc3cc(O)cc(O)c3CC2OC(=O)c2cc(O)c(O)c(O)c2)cc(O)c(O)c1O)c1cc(O)c(O)c(O)c1 (stereo unspecified)	inactive
O=C(O[C@@H]1Cc2c(O)cc(O)cc2O[C@@H]1c1cc(O)c(O)c(O)c1-c1c([C@H]2Oc3cc(O)cc(O)c3C[C@H]2O)cc(O)c(O)c1O)c1cc(O)c(O)c(O)c1	active
CC(C)(C)NS(=O)(=O)NC(C)(C)C	inactive

Test call, this compound: CN1C2CCC1CC(=NO)C2
inactive

Which result was noted for this compound in the test: CCOc1ccc(/C=C(\C)[N+](=O)[O-])cc1OC
active

What is the recorded call for this compound in the test? O=C(O)CF
inactive

// return assay outcome for C=C[C@](C)(O)CCC=C(C)C
inactive

Fill in: this test's call for CC(=O)N/C(=C/c1ccc2c(c1)OCO2)C(=O)O is ___
inactive

What call does the record list for NCCCC[C@H](N[C@@H](CCc1ccccc1)C(=O)O)C(=O)N1CCC[C@H]1C(=O)O ?
inactive

Recorded test call requested for CC(C)=CCC[C@](C)(O)C1CC=C(C)CC1 (stereo partly specified)
inactive

Call for entry C/C=C/c1ccc2c(c1)OCO2 :
inactive
